All values here come from PubChem BioAssay (Tox21).

Experiment: qHTS assay to identify small molecule antagonists of the retinoid-related orphan receptor gamma (ROR-gamma) signaling pathway - cell viability counter screen (AID 1159520); note: nearly all actives have a fitted effect of over 50% in size
Conditions: Tet-on RORgamma CHO cells viability, ATP luminescence, 16 h; series mostly up to 92.4 µM
Results filed as inconclusive are left out. Active and inactive are the calls of the source. Calls come from the whole dose curve; as a rule, active = well fitted cell-killing curve with a large enough effect in the repeat runs; inconclusive = weak or mixed curves, or effect the other way; inactive = no such curve, though single readings can be large or run the other way.
Give one outcome, nothing more. List: active, inactive

Sample answers from the record:
* CC(=O)Oc1cc2c(s1)CCN(C(C(=O)C1CC1)c1ccccc1F)C2 (configuration not stated) | inactive
* CC(C)(C)NSc1nc2ccccc2s1 | inactive
* CCCCC/C=C\C/C=C\CCCCCCCC(=O)O | inactive
* O=C(O)c1cc(O)c2ccccc2c1O | active
* CCC(C)[O-].CCC(C)[O-].CCOC(=O)/C=C(/C)[O-].[Al+3] | inactive
* OC/C=C/CO | inactive

# evaluate next
I would be grateful if you could indicate the recorded call for `O=C(O)c1cc(-c2ccc(F)cc2F)ccc1O` . inactive

---

Test: A CellTox Green Cytotoxicity Assay to monitor cytotoxicity in HepG2 cells - 40 hour (AID 1224879); note: % is set by controls: 0 for no effect and ±100 for the full control effect; nearly all actives have a fitted effect of over 40% in size
Details: CellTox Green fluorescence; series mostly up to 76.8 µM
Source text: National Center for Advancing Translational Sciences [NCATS] NIH Chemical Genomics Center [NCGC] U.S. Environmental Protection Agency [EPA] National Institutes of Environmental Health Sciences [NIEHS] National Toxicology Program [NTP] Cell-based models are critical for drug discovery. […] Viable cells produce no appreciable increases in fluorescence. Therefore, the fluorescence signal produced by the binding interaction with dead cell DNA is proportional to cytotoxicity. […]
Inconclusive results are not listed. Calls of active or inactive are those of the source. The call rests on the fitted dose curve; in most records, active means well fitted activation curve with a large enough effect in the repeat runs; inconclusive means weak or mixed curves; inactive means flat fitted curve, though single readings scatter.
Give one outcome, nothing more. List: y for active, n for inactive

Sample answers from the record:
- O=[N+]([O-])c1ccc(F)c(Cl)c1: n
- OC[C@@H](O)[C@@H](O)CO: n
- Cc1cccc(C)c1NC(=O)c1ccc(N)cc1: n
- C=CC(=O)OCCOC(=O)C=C: n
- Nc1ccc(Oc2ccc(Cl)cc2)cc1: n
- Cc1cc(=O)oc2cc(O)cc(O)c12: n

# evaluate next
I would be grateful if you could indicate the recorded call for CCCCCCOC(=O)C(C)CC (stereo unspecified) . n

---

Test: Caspase-3/7 induction in HepG2 cells by small molecules, qHTS cell viability counter screen (AID 1346981); note: nearly all actives have a fitted effect of over 30% in size
Details: CellTiter-Fluor fluorescence, 17 h; series mostly up to 92.4 µM
Records with an inconclusive call do not appear. Activity calls are given as the source filed them. Calls follow the shape of the dose curve; as a rule, active = well fitted cell-killing curve with a large enough effect in the repeat runs; inconclusive = weak or mixed curves, or effect the other way; inactive = flat fitted curve, though single readings scatter.
Give one outcome, nothing more. List: t = active, f = inactive

Sample answers from the record:
- S=C([S-])NCCNC(=S)[S-].S=C([S-])NCCNC(=S)[S-].[Mn+2].[Zn+2]: f
- Nc1cc(Cl)c(O)c(Cl)c1: f
- c1cnccn1: f
- CCOc1ccc2ccccc2c1C(=O)N[C@@H]1C(=O)N2[C@@H]1SC(C)(C)[C@@H]2C(=O)O: f
- CNc1ccc([N+](=O)[O-])cc1: t

# evaluate next
I would be grateful if you could indicate the recorded call for CC(CCc1ccccc1)NCC(O)c1ccc(O)c(C(N)=O)c1 (stereo not drawn) . t

---

Assay: qHTS assay for small molecule activators of the heat shock response signaling pathway - cell viability counter screen (AID 743209); note: nearly all actives have a fitted effect of over 50% in size
Conditions: HSE-bla HeLa viability, CellTiter-Glo luminescence, 5 h; series mostly up to 62.6 µM
Results filed as inconclusive are left out. Activity calls are given as the source filed them. Calls follow the shape of the dose curve; as a rule, active = well fitted cell-killing curve with a large enough effect in the repeat runs; inconclusive = weak or mixed curves, or effect the other way; inactive = no such curve, though single readings can be large or run the other way.
Give one outcome, nothing more. List: active, inactive

Sample answers from the record:
• c1cnccn1 = inactive
• Cc1cc(C(C)(C)C)cc(C)c1CC1=NCCN1 = inactive
• CCCC1CCC(=O)CC1 = inactive
• C=CCCC(=O)/C=C/C1C(C)=CCCC1(C)C (stereo not drawn) = inactive
• CCc1cccc(CC)c1NC(=O)CN(CC(=O)O)CC(=O)O = inactive
• CCC(=O)OC(=O)CC = inactive
• CCO[C@@H]1O[C@H](C(COCc2ccccc2)OCc2ccccc2)[C@H](OCc2ccccc2)[C@H]1O (stereo partly drawn) = inactive
• C=CC(=O)OCCOC(=O)C=C = active

# evaluate next
I would be grateful if you could indicate the recorded call for `CCCCCc1ccc(Cl)cc1` . inactive

---

Experiment: qHTS assay to identify small molecule antagonists of the estrogen related receptor signaling pathway with the pleiotropic PPARgamma coactivator (PGC) from Tox21 10K library (AID 1224841); note: actives are mostly falling curves and most rising ones were filed inactive; nearly all actives have a fitted effect of over 50% in size
Conditions: PGC/ERR reporter cell line, ONE-Glo luciferase, 18 h; series mostly up to 92.4 µM
Results filed as inconclusive are left out. Calls of active or inactive are those of the source. No rule for the calls is given here.
Give one outcome, nothing more. List: active, inactive

* COc1ccc2c(c1)c(CC(=O)OC/C=C(\C)CC/C=C(\C)CCC=C(C)C)c(C)n2C(=O)c1ccc(Cl)cc1 | inactive
* O=C(O)c1cc(-c2ccc(F)cc2F)ccc1O | active
* COc1cccc2c1C(=O)c1c(O)c3c(c(O)c1C2=O)C[C@@](O)(C(C)=O)C[C@@H]3O[C@H]1C[C@H](N)[C@H](O)[C@H](C)O1 | inactive
* CC(C)(c1cc(Br)c(OCC(Br)CBr)c(Br)c1)c1cc(Br)c(OCC(Br)CBr)c(Br)c1 (centres undefined) | inactive
* O=C1CCc2ccc(OCCCCN3CCN(c4cccc(Cl)c4Cl)CC3)cc2N1 | active

I would be grateful if you could indicate the recorded call for `O=C(O)c1cc(=O)c2ccccc2o1` . inactive

I would be grateful if you could indicate the recorded call for `CNc1ccc([N+](=O)[O-])cc1` . inactive

I would be grateful if you could indicate the recorded call for `COc1c(C)c2c(c(O)c1C/C=C(\C)CCC(=O)OCCN1CCOCC1)C(=O)OC2` . inactive

I would be grateful if you could indicate the recorded call for CCOC(=O)NNc1ccc(N(CC)CC(C)O)nn1 (centres undefined) . inactive

I would be grateful if you could indicate the recorded call for `Nc1cc(Cl)c(O)c(Cl)c1` . inactive

I would be grateful if you could indicate the recorded call for CCCCC(CC)CN1CN(CC(CC)CCCC)CC(C)(N)C1 (centres undefined) . inactive

I would be grateful if you could indicate the recorded call for `O=c1oc2cc(O)ccc2c2oc3cc(O)ccc3c12` . inactive

I would be grateful if you could indicate the recorded call for `CC1=Nc2ccccc2C1(C)C` . inactive

I would be grateful if you could indicate the recorded call for `O=S(=O)(O)c1ccccc1/C=C/c1ccc(-c2ccc(/C=C/c3ccccc3S(=O)(=O)O)cc2)cc1` . inactive

---

Experiment: qHTS assay for identifying genotoxic compounds that show differential cytotoxicity against isogenic chicken DT40 cell lines with known DNA damage response pathways - Rev3 mutant cell line (AID 743014); note: nearly all actives have a fitted effect of over 55% in size
Conditions: chicken DT40 Rev3-/- viability, CellTiter-Glo, 40 h; series mostly up to 68.4 µM
Records with an inconclusive call do not appear. Activity calls are given as the source filed them. The call rests on the fitted dose curve; in most records, active means well fitted cell-killing curve with a large enough effect in the repeat runs; inconclusive means weak or mixed curves, or effect the other way; inactive means no such curve, though single readings can be large or run the other way.
Give one outcome, nothing more. List: active, inactive

I would be grateful if you could indicate the recorded call for CCCCC(CC)COC(=O)CCCCC(=O)OCc1ccccc1 (stereo unspecified) . inactive

I would be grateful if you could indicate the recorded call for `CCCCCCCCCCC[C@@H](C[C@@H]1OC(=O)[C@H]1CCCCCC)OC(=O)[C@H](CC(C)C)NC=O` . active

I would be grateful if you could indicate the recorded call for `COc1ccc(-c2coc3cc(O)ccc3c2=O)cc1` . active

I would be grateful if you could indicate the recorded call for CN1CCN2c3ccccc3Cc3ccccc3C2C1 (stereo unspecified) . active

I would be grateful if you could indicate the recorded call for `CN(C)C(=O)COC(=O)Cc1ccc(OC(=O)c2ccc(N=C(N)N)cc2)cc1` . inactive

I would be grateful if you could indicate the recorded call for `Nc1nc(N)nc(-c2cc(Cl)ccc2Cl)n1` . inactive

---

I'd appreciate it if you could supply activity change, negative = cytotoxicity values for the items below.
Test: qHTS assay to identify small molecule agonists of the RXR signaling pathway - cell viability counter screen (AID 1159529);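 note: HEK 293T cells carrying an RXR-alpha UAS beta-lactamase reporter; % is set by controls: 0 for no effect and ±100 for the full control effect; nearly all actives have a fitted effect of over 50% in size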
Conditions: RXR-alpha-bla HEK293T viability, CellTiter-Glo, 16 h; series mostly up to 76.8 µM
Records with an inconclusive call do not appear. The source made the active and inactive calls. The call rests on the fitted dose curve; in most records, active means well fitted cell-killing curve with a large enough effect in the repeat runs; inconclusive means weak or mixed curves, or effect the other way; inactive means no such curve, though single readings can be large or run the other way.

Solved cases (3 shown):
- NC[C@H]1O[C@H](O[C@H]2[C@H](O[C@@H]3O[C@H](CO)[C@@H](O)[C@H]3O)C(O)[C@H](N)C[C@@H]2N)[C@H](N)[C@@H](O)[C@@H]1O (some centres undefined): 3% [at 6.97 µM] (inactive)
- CC(C)Cn1cnc2c(N)nc3ccccc3c21: 1.15% [at 15.8 µM] (inactive)
- CC(C)(C)CC(C)(C)c1ccc(Nc2ccc(C(C)(C)CC(C)(C)C)cc2)cc1: 2.3% [at 6.97 µM] (inactive)

Next, consider the following compound.
Value lookup for activity change, negative = cytotoxicity; key = `O=C(O)CN(CCN(CC(=O)O)CC(=O)O)CC(=O)O` -6.94% [at 2.72 µM] (inactive)
